Sourced from PubChem BioAssay (NCI)

Reported growth inhibition values are given for each entry in this list.
- Test protocol: NCI Yeast Anticancer Drug Screen. Data for the mec2-1 strain (AID 157)
- Test conditions: S. cerevisiae mec2-1 strain, at 5.0 µM (retest, dose inferred, filed as 0.5), active compounds read high
About 79,000 compounds went through this panel and 15% of them were active in at least one assay; those are over-represented in the sample as a whole.

Compound: O=C(Cc1ccccc1)NNc1nc(NNC(=O)c2ccncc2)nc(Nc2ccc(Cl)cc2)n1
growth inhibition [%]: 6
--
Compound: O=[N+]([O-])c1cn[n+]([O-])c2ccccc12
growth inhibition [%]: -31
--
Compound: COc1ccc2nc(CCc3ccccc3)ccc2c1
growth inhibition [%]: -7
--
Compound: CC1CCC(C2=CSC3CCCCC3N2)CC1 (stereo unspecified)
growth inhibition [%]: -6
--
Compound: O=C(O)C(=Cc1ccc(-c2ccccc2)cc1)C(=O)O
growth inhibition [%]: -7
--
Compound: CCOP(=O)(OCC)/C(C#N)=C/c1ccc(-c2ccc(F)cc2F)o1
growth inhibition [%]: 19
--
Compound: O=C1C2=C(c3ccccc31)C(c1ccccc1)N1C(=O)CSC1=N2 (stereo unspecified)
growth inhibition [%]: -9
--
Compound: COc1ccc(C(C)c2cc3c(cc2OC(C)O)OCO3)cc1 (stereo unspecified)
growth inhibition [%]: 3
--
Compound: O=C1C(CCSc2ccccc2)C(=O)N(c2ccccc2)C1c1ccccc1 (stereo unspecified)
growth inhibition [%]: 47
--
Compound: CC(=O)N1C=Cc2c(c(C)c3c([nH]c4ccccc43)c2C)C1
growth inhibition [%]: 12
--
Compound: CCC(=O)C1=C(O)c2cc(OC)ccc2CC1C(=O)OC (stereo unspecified)
growth inhibition [%]: -5
